Molecular target: T1, VEGFR-2 (human, UniProt P35968)
T1 chain: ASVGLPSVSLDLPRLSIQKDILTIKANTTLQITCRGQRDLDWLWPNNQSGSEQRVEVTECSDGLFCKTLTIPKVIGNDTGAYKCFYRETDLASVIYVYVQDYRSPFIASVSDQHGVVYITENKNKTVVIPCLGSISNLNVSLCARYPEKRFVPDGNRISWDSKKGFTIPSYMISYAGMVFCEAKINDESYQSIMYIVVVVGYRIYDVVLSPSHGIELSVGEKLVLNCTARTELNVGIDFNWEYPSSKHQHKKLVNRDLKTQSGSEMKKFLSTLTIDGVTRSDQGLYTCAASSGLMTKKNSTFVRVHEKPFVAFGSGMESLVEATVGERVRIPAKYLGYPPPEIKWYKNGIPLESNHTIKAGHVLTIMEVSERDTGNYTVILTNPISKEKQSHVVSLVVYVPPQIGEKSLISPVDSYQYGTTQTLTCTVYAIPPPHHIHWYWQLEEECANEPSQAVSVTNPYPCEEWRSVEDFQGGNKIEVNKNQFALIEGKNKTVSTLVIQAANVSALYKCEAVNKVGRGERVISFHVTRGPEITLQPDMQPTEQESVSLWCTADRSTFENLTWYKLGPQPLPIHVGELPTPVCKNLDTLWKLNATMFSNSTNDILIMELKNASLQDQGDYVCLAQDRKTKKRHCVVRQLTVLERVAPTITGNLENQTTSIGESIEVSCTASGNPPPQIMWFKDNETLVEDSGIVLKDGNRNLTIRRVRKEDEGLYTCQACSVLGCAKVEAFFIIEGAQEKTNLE
Assay: competition, COS-1
measureName: binding result

# binder, result
rows = [
    ("KGRGKRAAEAQAPSDKPRR [P6V8-3NCSA7,8,10,12]", "no binding"),
    ("AGRGKARREKQRPSDKPRR [P6V8-3NCSA1A6]", "no binding"),
    ("RRPKGRGKRRREAAAPSDKPRR [AS-4]", "no binding"),
    ("RREKQRPCDKPRR [P6V8-9N]", "no binding"),
]
